# target-of-assay: Human CD3eg linker (human)
# Sequence (chain, as listed by the source limits assumed): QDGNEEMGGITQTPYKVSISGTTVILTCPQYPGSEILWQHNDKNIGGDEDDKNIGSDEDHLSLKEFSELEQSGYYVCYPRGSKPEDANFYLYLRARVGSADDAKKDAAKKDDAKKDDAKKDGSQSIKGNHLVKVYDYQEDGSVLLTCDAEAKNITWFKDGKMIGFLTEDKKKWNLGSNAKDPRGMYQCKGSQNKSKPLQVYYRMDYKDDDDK
# test-summary: SPR; fold vs parent H183/L072
readout-kind: fold change of affinity
Please make sure the unit comes right after the number.

Use the examples below as a reference point.
binder | recorded-result
H183/L072 VL L27bR (antibody, name in Kabat numbering, V domains shown) VH: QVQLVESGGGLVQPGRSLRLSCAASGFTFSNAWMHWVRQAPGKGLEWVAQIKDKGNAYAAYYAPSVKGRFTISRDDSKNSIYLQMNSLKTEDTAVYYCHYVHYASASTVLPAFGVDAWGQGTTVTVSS VL: DIVMTQSPLSLPVTPGEPASISCQASQERVHMNRNTYLHWYQQKPGQAPRLLIYKVSNRFPGVPDRFSGSGSGTDFTLKISRVEAEDVGVYYCAQGTSVPFTFGQGTKLEIK | 0 fold
H183/L072 VL N28M (antibody, name in Kabat numbering, V domains shown) VH: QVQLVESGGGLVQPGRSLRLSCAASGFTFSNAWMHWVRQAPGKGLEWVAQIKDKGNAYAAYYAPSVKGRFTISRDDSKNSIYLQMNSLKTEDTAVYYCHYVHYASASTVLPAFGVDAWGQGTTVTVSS VL: DIVMTQSPLSLPVTPGEPASISCQASQELVHMMRNTYLHWYQQKPGQAPRLLIYKVSNRFPGVPDRFSGSGSGTDFTLKISRVEAEDVGVYYCAQGTSVPFTFGQGTKLEIK | 0 fold
H183/L072 VL N53I (antibody, name in Kabat numbering, V domains shown) VH: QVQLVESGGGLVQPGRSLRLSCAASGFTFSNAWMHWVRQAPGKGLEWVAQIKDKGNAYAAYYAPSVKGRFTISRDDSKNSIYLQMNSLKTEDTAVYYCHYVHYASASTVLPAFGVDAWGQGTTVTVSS VL: DIVMTQSPLSLPVTPGEPASISCQASQELVHMNRNTYLHWYQQKPGQAPRLLIYKVSIRFPGVPDRFSGSGSGTDFTLKISRVEAEDVGVYYCAQGTSVPFTFGQGTKLEIK | 0 fold
H183/L072 VL S93P (antibody, name in Kabat numbering, V domains shown) VH: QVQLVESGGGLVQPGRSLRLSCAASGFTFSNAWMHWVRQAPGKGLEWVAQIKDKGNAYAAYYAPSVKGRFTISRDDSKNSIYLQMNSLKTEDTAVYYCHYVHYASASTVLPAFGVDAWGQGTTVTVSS VL: DIVMTQSPLSLPVTPGEPASISCQASQELVHMNRNTYLHWYQQKPGQAPRLLIYKVSNRFPGVPDRFSGSGSGTDFTLKISRVEAEDVGVYYCAQGTPVPFTFGQGTKLEIK | 0 fold
H183/L072 VL H34V (antibody, name in Kabat numbering, V domains shown) VH: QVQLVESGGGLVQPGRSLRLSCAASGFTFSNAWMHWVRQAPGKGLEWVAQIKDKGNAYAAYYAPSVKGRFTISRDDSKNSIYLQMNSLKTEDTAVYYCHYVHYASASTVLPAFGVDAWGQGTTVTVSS VL: DIVMTQSPLSLPVTPGEPASISCQASQELVHMNRNTYLVWYQQKPGQAPRLLIYKVSNRFPGVPDRFSGSGSGTDFTLKISRVEAEDVGVYYCAQGTSVPFTFGQGTKLEIK | 0 fold

fold change of affinity for H183/L072 VL G91P (antibody, name in Kabat numbering, V domains shown) VH: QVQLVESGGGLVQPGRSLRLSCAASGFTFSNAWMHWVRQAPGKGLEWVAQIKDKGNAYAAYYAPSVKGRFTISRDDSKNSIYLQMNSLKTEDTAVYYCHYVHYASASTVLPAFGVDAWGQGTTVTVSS VL: DIVMTQSPLSLPVTPGEPASISCQASQELVHMNRNTYLHWYQQKPGQAPRLLIYKVSNRFPGVPDRFSGSGSGTDFTLKISRVEAEDVGVYYCAQPTSVPFTFGQGTKLEIK ?
0 fold
